The values you see were collected from PubChem BioAssay.

Could you please report measured z-score for the items listed next?
- Experiment Description: inhibitors of hydroxyurea-induced Chk1 phosphorylation, primary screen, imaging, HeLa, phospho-Chk1 antibody, percent positive cells (AID 1186)
- Experimental Context: hydroxyurea-induced phospho-Chk1 immunofluorescence imaging, higher = more signal
Keep it simple and answer with nothing but the number.

(Q) Data request, read-out z-score, for Cc1ccccc1C(O)C1C=CC2C(=O)N(c3ccccc3)C(=O)C2N1Nc1ccccc1F (configuration not stated)
(A) 1.27

(Q) Same again, this time with CCCCC(=C=CC[C@@H](O)c1cccc(OCCO)c1)CCO
(A) -0.875

(Q) Same again, this time with Cc1ccc(S[C@]2(C(=O)NCCN3CCOCC3)CC(=O)N(C3CCCCC3)[C@@H]2c2ccc(CO)cc2I)cc1
(A) 0.134

(Q) Same again, this time with CCCC[C@@H](O)C1=C(COC)Cn2c(=O)n(-c3ccccc3)c(=O)n2[C@H]1CO
(A) -0.464

(Q) Same again, this time with COC(=O)[C@]1(CO)N=C(c2ccc(OCCCO)cc2)O[C@@H]1c1ccccc1CN=[N+]=[N-]
(A) -0.33

(Q) Same again, this time with [N-]=[N+]=NCc1ccccc1[C@@H]1OC(c2ccc(OCCCO)cc2)=N[C@]1(Cc1ccccc1)C(=O)NCc1ccccc1
(A) -0.306

(Q) Same again, this time with COc1cccc(C[C@H]2C[C@@H](CO[Si](C(C)C)(C(C)C)C(C)C)N3C(=O)[C@@]4(C(C)=O)O[C@@]23[C@@H]2C(=O)N(C)C(=O)[C@@H]24)c1
(A) -0.365

---

- Tested On: Follistatin (Homo sapiens)
- Experiment Description: follistatin binders on small-molecule microarrays, primary screen, biochemical, small-molecule microarray, 635/667 nm fluorescence (AID 1132)
- Experimental Context: FST binding, 635 nm fluorescence, higher = more signal
Metric Name: composite z-score
Keep it simple and answer with nothing but the number.

(Q) Data request, read-out composite z-score, for [N-]=[N+]=NCc1ccccc1C[C@]1(C(=O)N2CCCCC2)N=C(c2ccc(OCCCO)cc2)O[C@H]1c1ccccc1
(A) 0.351

(Q) Same again, this time with CC(C)CNC(=O)[C@@H]1c2ccccc2C(=O)N(Cc2ccccc2)[C@H]1c1ccc(CO)cc1
(A) -0.0977

(Q) Same again, this time with COc1ccc(CCNC(=O)[C@@]2(Sc3ccc(C)cc3)CC(=O)N(Cc3cc(C(F)(F)F)cc(C(F)(F)F)c3)[C@@H]2c2ccc(CO)cc2)cc1
(A) -1.83

---

- Experiment Description: MM1S myeloma cell viability, profiling panel, resazurin fluorescence, basal, 24 h, PK04 Diversity Set (AID 1174);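 further: MM1S multiple myeloma cell line; test concentration not given here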
- Experimental Context: higher = more signal, called active from +8 up or from −8 down
Metric Name: z-score
Keep it simple and answer with nothing but the number.

(Q) Data request, read-out z-score, for COc1ccc([Si](C)(C)[C@H]2[C@H](CCn3cc([C@H](O)c4ccccc4)nn3)O[C@@]3(C(=O)N(C)c4c(Br)cc(C)cc43)[C@@H]2C)cc1
(A) -3.29

(Q) Same again, this time with CCC[C@@H]1[C@@H](Sc2ccccc2)[C@@H](C(=O)O)[C@H](c2ccc(C)cc2)N1S(=O)(=O)c1ccc(C)cc1
(A) -0.0959

(Q) Same again, this time with Cc1ccccc1C(O)C1C=CC2C(=O)N(c3ccccc3)C(=O)C2N1Nc1ccccc1F (centres undefined)
(A) -1.08

(Q) Same again, this time with CN(C)C(=O)[C@]1(Cc2ccccc2CN=[N+]=[N-])N=C(c2ccc(OCCCO)cc2)O[C@@H]1c1ccccc1N=[N+]=[N-]
(A) -1.54

(Q) Same again, this time with C=CCC(OC(C)=O)[C@@H]1[C@@H](N(Cc2cccc3ccccc23)C(=O)c2cccc3ccccc23)c2cc(OCCCO)ccc2N1C(=O)Cc1ccc2ccccc2c1 (some centres undefined)
(A) -0.41

(Q) Same again, this time with CCCC[C@@H]1C[C@H]1[C@@H](NC(=O)Cc1ccccc1)c1ccc(Cl)cc1
(A) 0.625

(Q) Same again, this time with COC(=O)Cn1c(C(=O)N(C)C)cc2c1C[C@H]1CN(C(=O)c3ccccc3)[C@@](Cc3ccc(OC)cc3)(C(=O)OC)[C@@H]21
(A) -0.667

(Q) Same again, this time with COc1ccc([Si](C)(C)[C@H]2[C@H](CCO)O[C@@]3(C(=O)N(Cc4ccc(N5CCOC5=O)cc4)c4ccccc43)[C@@H]2C)cc1
(A) -2.66

(Q) Same again, this time with C=C(C(=O)CC[C@@H](OC(C)=O)c1cccc(OCCO)c1)C(C)C
(A) -0.353

(Q) Same again, this time with CC(C)CNC(=O)[C@@H]1c2ccccc2C(=O)N(CC23CC4CC(CC(C4)C2)C3)[C@H]1c1ccc(CO)cc1
(A) 1.93

(Q) Same again, this time with COc1cc2c(cc1O)C(c1ccc(CN3CCCC3)cc1)N(Cc1ccc([N+](=O)[O-])o1)CC2 (centres undefined)
(A) -0.727

(Q) Same again, this time with COCCCNC(=O)[C@@]1(Sc2ccc(C)cc2)CC(=O)N(C2CCCCC2)[C@@H]1c1ccc(CO)cc1I
(A) -0.326

(Q) Same again, this time with CC(C)CNC(=O)[C@@H]1c2ccccc2C(=O)N(Cc2ccccc2)[C@H]1c1ccc(CO)cc1
(A) -0.628

(Q) Same again, this time with CCOC(=O)C[C@H]1[C@H](OC(=O)c2ccc(-c3ccccc3)cc2)[C@@H](NC(=O)CC(C)C)c2cc(OCCCO)ccc2N1C(=O)Cc1ccc(OC)cc1
(A) -0.38

(Q) Same again, this time with C#CCN(C/C=C/c1ccccc1)[C@H](CO[Si](C)(C)C(C)(C)C)c1ccccc1
(A) -0.668

(Q) Same again, this time with COCCOC(=O)N1C(=O)[C@@]2(c3cc(C#CC4(O)CCCCCC4)ccc31)[C@H](c1ccc(OCCO)cc1)N1[C@H](c3ccccc3)[C@H](c3ccccc3)OC(=O)[C@H]1[C@@H]2C(=O)N1CCCCCCC1
(A) -0.418

(Q) Same again, this time with O=C1c2ccccc2[C@@]2(Cc3ccccc3N(Cc3ccccc3)C2=O)[C@H](c2ccc(CO)cc2)N1Cc1ccccc1
(A) -0.851

(Q) Same again, this time with CCc1cccc(NC(=O)O[C@H]2[C@H](OC(=O)Nc3ccc4c(c3)OCO4)[C@H](OC(=O)Nc3ccc4c(c3)OCO4)[C@@H](OC)O[C@@H]2CO)c1
(A) -1.44

(Q) Same again, this time with O=C1O[C@H](c2ccccc2)[C@H](c2ccccc2)N2[C@H]1[C@@H](C(=O)NC[C@H](O)c1ccccc1)[C@]1(C(=O)Nc3ccc(C#CCCO)cc31)[C@H]2c1ccccc1OCCO
(A) -1.12
